- Test system: U251 CNS
- EXPERIMENT_DESCRIPTION: NCI tumour cell line growth inhibition, 48 h
MEASURED_METRIC: TGI

Previously resolved entries follow.
N#CC1CCCCOCCOCCOCCOCCOCCCCCC1=O (stereo not given)	> 100 µM
CCCCC(C)C(OC(=O)CC(CC(=O)O)C(=O)O)C(CC(C)CC(O)CCCCC(O)CC(O)C(C)N)OC(=O)CC(CC(=O)O)C(=O)O (stereo not given)	> 100 µM
CCn1c(SC(C)C(=O)c2c(C)n(C)n(-c3ccccc3)c2=O)nc2ccccc2c1=O (stereo not given)	> 100 µM
CCC(c1ccc(OC)cc1)C(CC)c1ccc(O)c(CN2CCN(C)CC2)c1 (stereo not given)	12.2 µM
CN(CCO)CCCC1COc2ccccc2O1 (stereo not given)	> 100 µM
COc1ccc2c(C3(c4cn(C)c5cc(OC)ccc45)C(=O)Nc4ccc(Cl)cc43)cn(C)c2c1	> 100 µM
COc1cccc(/C=N/NC(=S)NC2CC3CCC2C3)c1O (stereo not given)	26.7 µM
COC(=O)C1C=CCON2CCc3c(n(C)c4ccccc34)C12 (stereo not given)	> 100 µM
CC(=O)c1c(CN(C)c2ccccc2)n([O-])c2ccccc2[n+]1=O	> 100 µM
C=CCc1cc(-c2cc(CC=C)c(O)c(CN(CC)CC)c2)cc(CN(CC)CC)c1O	> 100 µM

API: the following record is the query input.
Prompt: Notebook entry, U251 CNS assay: TGI of "O=C1C=CC(=C(c2ccc(O)cc2)c2ccc(O)cc2)C=C1" = ?
Completion: 22.6 µM

---

Items are presented alongside their recorded TGI.
- Tested on: UACC-257 melanoma
- EXPERIMENT_DESCRIPTION: NCI tumour cell line growth inhibition, 48 h

Previously resolved entries follow.
CN(C)C(=Nc1nc(=[N+](C)C)ss1)N(C)C	> 100 µM
CCOc1ccc2c(c1)[n+]([O-])c(-c1ccc(Br)cc1)c(N)[n+]2[O-]	> 100 µM

API: the following record is the query input.
Prompt: Form field: reported TGI of "O=[N+]([O-])c1ccccc1S(=O)(=O)c1ccccc1"
Completion: > 100 µM

---

- Tested on: OVCAR-3 ovarian
- EXPERIMENT_DESCRIPTION: NCI tumour cell line growth inhibition, 48 h
Items are presented alongside their recorded TGI.

Previously resolved entries follow.
Oc1ccc(-c2nc3ccc4[nH]ncc4c3c3c2CCCC3)c(F)c1	7.85 µM
CCOC(=O)c1nc2ccccc2nc1Oc1ccc(C(=O)OC)cc1	> 100 µM

API: the following record is the query input.
Prompt: Form field: reported TGI of CCCC(O)c1cn(C(NC(=O)c2ccccc2)P(=O)(OCC)OCC)nn1 (stereo not drawn)
Completion: > 100 µM

---

Items are presented alongside their recorded GI50.
- Test system: SK-OV-3 ovarian
- EXPERIMENT_DESCRIPTION: NCI tumour cell line growth inhibition, 48 h

Previously resolved entries follow.
N[C@@H]1C(=O)N2C(C(=O)OC(c3ccccc3)c3ccccc3)=C(CCl)CS[C@H]12	> 100 µM
CC1=CC(=O)C(C(C)C)=CC1=Nc1cc(Br)c(O)c(Br)c1	3.45 µM
CC(=O)c1c(CN(C)c2ccccc2)n([O-])c2ccccc2[n+]1=O	31.8 µM

Prompt: Form field: reported GI50 of "Cc1ccc(-c2c3c(nn2-c2ccc(S(N)(=O)=O)cc2)-c2ccccc2C3)cc1"
Completion: 47.3 µM

Prompt: What do you get for "Cc1cc(Nc2nc(-c3cccnc3)nc3ccccc23)n[nH]1" ?
Completion: 0.956 µM

Prompt: What do you get for COc1cc2c(cc1OC)C(Sc1ccc(SC)cc1)c1c(nc(N)c(C#N)c1N)O2 (stereo unspecified) ?
Completion: 1.88 µM
